Provenance of the data: the EternaBench riboswitch data

Measured apparent Kd of individual entries
- Test system: MS2 coat protein
- assayNotes: apparent Kd, MS2 coat protein; higher = weaker binding; RNA-MaP array; FMN 200 µM where present
- conditionContext: ligand present: flavin mononucleotide; designed as: ON switch for flavin mononucleotide
Provide the reading as a plain figure in nM.

Example entries and their recorded answers appear below.
entrysequence=AAAAAACAUGAGGAUCACCCAUGUCCAAAAAAAAAAGGAUAUGCAAAAAAAAAAAAAAAAGCAGAAGGUUUAAAAA resultunit=nM numericresult=74.7
entrysequence=GUAGCAUACAGAGGAUAUUCAAAACCGGAAACGGACAUGAGGAUCACCCAUGUGGCGAAAGCCUGGGAGAAGGCUGAAUGCUAC resultunit=nM numericresult=14.2
entrysequence=GAGUAGUUAAAAGGAUAUUGAUUAUUGUAGGAUCAAGAAGGUUUUAACAUGAGGAUCACCCAUGUAGGACUAUUCCUGUGUAUC resultunit=nM numericresult=14.8
entrysequence=GUAGCUAUCGGAGGAUAUUCAUACCGGAAACGGACAUGAGGAUCACCCAUGUGCCGAAAGGCUUGGGAGAAGGCCGAUAGCUAC resultunit=nM numericresult=18.5
entrysequence=GACUGAUUACAGAAGGUGUAAGACAUGAGGAUCACCCAUGUGAUAUAGGGUAUAUUUGAAUAUAACAAGGAUAUGUAUAAAUCA resultunit=nM numericresult=60.4

query: For the sequence GGACGUCACAUUUACAUGAGGAUCACCCAUGUCUCUUGAUAUGAGGAUAUGUAUACGAAUCGUAUACAGAAGGCAUGGACGUCC , what apparent Kd is on record?
result: 29.8

query: Cool, now GUAGCAUACCGAGGAUAUUCAUACCGGAAACGGACAUGAGGAUCACCCAUGUGGCGAAAGCCUUGGGAGAAGGCGGAAUGCUAC
result: 25.1

* * *

- Test system: MS2 coat protein
- assayNotes: apparent Kd, MS2 coat protein; higher = weaker binding; RNA-MaP array
- conditionContext: designed as: ON switch for flavin mononucleotide; no ligand
Classification field: Y = apparent Kd at or over 20 nM; N = apparent Kd under 20 nM.

// known answers, use as guide
entrysequence=CAGUUACAUGAGGAUCACCCAUGUUUUUAACGCAGAGGAUAUCCGGUGGUUAAUGGCUCAGGAGAAGGCUGUGGUC assignedcategory=N
entrysequence=UAGCAAUUACAUGAGGAUCACCCAUGUCUAUCGCAGAACAAGCAGGAUAUAGUGACACGACUCCGCUAGAAGGGCUCCUCUGUU assignedcategory=Y
entrysequence=UGAUUACAUGAGGAUCACCCAUGUGACUACGCCUCAGGAUAUGAUGACAAAUUCUAGAAGUCAGAAGGGAGUUUGU assignedcategory=Y
entrysequence=AAAGCUACCAAAGGAUAUUGUUUCCAUCACACAUGAGGAUCACCCAUGUAGCCAUAAACGGAUCGCAAGAAGGUUGGGAAAGUG assignedcategory=N
entrysequence=CGCUCGCGGCGGAAGGAUAUGUCUAUCCGGACAUGAGGAUCACCCAUGUAUGGGUACUUGCUGCAACAGAAGGUCCGUAUUAUAUG assignedcategory=Y

Now let's try a different one.
query: Check the entry AAUCGCAAUUGAGGAUAUUGAACUGAAUUGGCCACAUGAGGAUCACCCAUGUGACCUGUCUCCGUCAAGAAGGCAAUGUGGUGG : does apparent Kd equal or exceed 20 nM?
result: N
